Test system: 596521-263-R-J1-PDC complex spheroids, viability % of control
experiment_notes: Anticancer human tumor 596521-263-R-J1-PDC patient-derived soft tissue sarcoma cell line growth inhibition [GQUAD]
measurement_setup: second compound 0.1 µM; first compound 1 µM; stronger effect = lower value
Source text: DNA G-quadruplex Stabilizer Agents in Combinations in Complex Spheroids A high-throughput screen of multi-cell type tumor spheroids was designed to identify active combinations of DNA G-quadruplex stabilizer agents and targeted small molecules. […] Compounds. […] If the clinical Cmax for an agent had not been determined, the highest concentration tested was 10 microM. […]
Decide using viability, T/C alone. Strictly below 90%: met. Equal to or above 90%: not met.

Answered cases to consult:
1) CC1COCCN1c1cc(C2(S(C)(=N)=O)CC2)nc(-c2ccnc3[nH]ccc23)n1 (centres undefined) + Cc1cnc(CNC(=O)c2c(=O)c3ccc(N4CCCN(C)CC4)nc3n3c2sc2ccccc23)cn1	met
2) CC1COCCN1c1cc(C2(S(C)(=N)=O)CC2)nc(-c2ccnc3[nH]ccc23)n1 (centres undefined) + CN(C)c1ccc(Nc2c3ccc(NC(=O)CCN4CCCC4)cc3nc3cc(NC(=O)CCN4CCCC4)ccc23)cc1	met
3) O=C(NO)c1cnc(N2CCN(S(=O)(=O)c3ccc4ccccc4c3)CC2)nc1 + Cc1[nH]c2ccc(F)cc2c1-c1nc2c3cccnc3c3ncccc3c2[nH]1	met
4) CC(C)n1c(=O)n(C)c2cnc3cc(F)c(-c4ccc(OCCCN5CCCCC5)nc4)cc3c21 + Cc1[nH]c2ccc(F)cc2c1-c1nc2c3cccnc3c3ncccc3c2[nH]1	not met
5) COc1cc(C2c3cc4c(cc3C(OC3OC5COC(C)OC5C(O)C3O)C3COC(=O)C23)OCO4)cc(OC)c1O (centres undefined) + Cc1cnc(CNC(=O)c2c(=O)c3ccc(N4CCCN(C)CC4)nc3n3c2sc2ccccc23)cn1	met

Query block: Problem: For the compound C=CC(=O)N1CCN(c2nc(=O)n(-c3c(C)ccnc3C(C)C)c3nc(-c4c(O)cccc4F)c(F)cc23)C(C)C1 (centres undefined) + Cc1[nH]c2ccc(F)cc2c1-c1nc2c3cccnc3c3ncccc3c2[nH]1 , is viability, T/C under 90%?
Result block: not met

Query block: Problem: For the compound CC1COCCN1c1cc(C2(S(C)(=N)=O)CC2)nc(-c2ccnc3[nH]ccc23)n1 (centres undefined) + Cc1[nH]c2ccc(F)cc2c1-c1nc2c3cccnc3c3ncccc3c2[nH]1 , is viability, T/C under 90%?
Result block: met

* * *

System: 596521-263-R-J1-PDC complex spheroids, viability % of control
experiment_notes: Anticancer human tumor 596521-263-R-J1-PDC cell line growth inhibition [GQUAD];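 also: spheroids exposed to drugs for 7 days before viability reading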;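 as to viability, T/C: 100% = DMSO vehicle control viability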
measurement_setup: second compound 0.0316 µM; first compound 0.1 µM; stronger effect = lower value
just bin them by viability, T/C: low bracket: < 50%; middle bracket: ≥ 50% and < 80%; high bracket: ≥ 80%

Answered cases to consult:
1) CC(=O)O[C@H]1C(=O)[C@@]2(C)[C@H]([C@H](OC(=O)c3ccccc3)[C@]3(O)C[C@H](OC(=O)[C@H](O)[C@@H](NC(=O)c4ccccc4)c4ccccc4)C(C)=C1C3(C)C)[C@]1(OC(C)=O)CO[C@@H]1C[C@@H]2O + Cc1cnc(CNC(=O)c2c(=O)c3ccc(N4CCCN(C)CC4)nc3n3c2sc2ccccc23)cn1	low bracket
2) Nc1ccn(C2OC(CO)C(O)C2(F)F)c(=O)n1 (centres undefined) + Cc1cnc(CNC(=O)c2c(=O)c3ccc(N4CCCN(C)CC4)nc3n3c2sc2ccccc23)cn1	low bracket
3) COc1cccc2c1C(=O)c1c(O)c3c(c(O)c1C2=O)CC(O)(C(=O)CO)CC3OC1CC(N)C(O)C(C)O1 (centres undefined) + CN(C)c1ccc(Nc2c3ccc(NC(=O)CCN4CCCC4)cc3nc3cc(NC(=O)CCN4CCCC4)ccc23)cc1	middle bracket
4) C=CC(=O)N1CCN(c2nc(=O)n(-c3c(C)ccnc3C(C)C)c3nc(-c4c(O)cccc4F)c(F)cc23)C(C)C1 (centres undefined) + CN(C)c1ccc(Nc2c3ccc(NC(=O)CCN4CCCC4)cc3nc3cc(NC(=O)CCN4CCCC4)ccc23)cc1	high bracket
5) CC1COCCN1c1cc(-c2ccnn2C)c2ccnc(-c3ccn[nH]3)c2n1 (centres undefined) + CN(C)c1ccc(Nc2c3ccc(NC(=O)CCN4CCCC4)cc3nc3cc(NC(=O)CCN4CCCC4)ccc23)cc1	middle bracket
6) CC1COCCN1c1cc(C2(O)CC3CCC(C2)O3)c2cnn(-c3ccn[nH]3)c2n1 (centres undefined) + Cc1[nH]c2ccc(F)cc2c1-c1nc2c3cccnc3c3ncccc3c2[nH]1	middle bracket

Query block: Just checking, what class would you give COc1ccc([C@@H](O)c2cc(-c3ncnc4cc(N5CCOCC5)ccc34)c(F)cc2Cl)nn1 + Cc1[nH]c2ccc(F)cc2c1-c1nc2c3cccnc3c3ncccc3c2[nH]1 here?
Result block: high bracket

Query block: Just checking, what class would you give CCCS(=O)(=O)Nc1ccc(F)c(C(=O)c2c[nH]c3ncc(-c4ccc(Cl)cc4)cc23)c1F + CN(C)c1ccc(Nc2c3ccc(NC(=O)CCN4CCCC4)cc3nc3cc(NC(=O)CCN4CCCC4)ccc23)cc1 here?
Result block: high bracket

Query block: Just checking, what class would you give CC1COCCN1c1cc(C2(O)CC3CCC(C2)O3)c2cnn(-c3ccn[nH]3)c2n1 (centres undefined) + Cc1cnc(CNC(=O)c2c(=O)c3ccc(N4CCCN(C)CC4)nc3n3c2sc2ccccc23)cn1 here?
Result block: middle bracket

* * *

Test system: 596521-263-R-J1-PDC complex spheroids, viability % of control
experiment_notes: Anticancer human tumor 596521-263-R-J1-PDC cell line growth inhibition [GQUAD];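 also: spheroids exposed to drugs for 7 days before viability reading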
measurement_setup: curve of first compound; second compound 0.1 µM
This listing pairs compounds with measured pIC50.
Quick note: pIC50 means taking -log10 of the concentration in moles per liter.

1) CC1COCCN1c1cc(-c2ccnn2C)c2ccnc(-c3ccn[nH]3)c2n1 (stereo unspecified) + Cc1[nH]c2ccc(F)cc2c1-c1nc2c3cccnc3c3ncccc3c2[nH]1	6.29

Recorded pIC50 (compound CCCS(=O)(=O)Nc1ccc(F)c(C(=O)c2c[nH]c3ncc(-c4ccc(Cl)cc4)cc23)c1F + Cc1[nH]c2ccc(F)cc2c1-c1nc2c3cccnc3c3ncccc3c2[nH]1 ): 6.45

Recorded pIC50 (compound COc1ccc([C@@H](O)c2cc(-c3ncnc4cc(N5CCOCC5)ccc34)c(F)cc2Cl)nn1 + CN(C)c1ccc(Nc2c3ccc(NC(=O)CCN4CCCC4)cc3nc3cc(NC(=O)CCN4CCCC4)ccc23)cc1 ): 5.04

* * *

Tested on: 596521-263-R-J1-PDC complex spheroids, viability % of control
experiment_notes: Anticancer human tumor 596521-263-R-J1-PDC cell line growth inhibition [GQUAD];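 also: spheroids exposed to drugs for 7 days before viability reading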;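 as to viability, T/C: 100% = DMSO vehicle control viability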
measurement_setup: second compound 0.1 µM; first compound 0.1 µM; stronger effect = lower value
measurement_kind: viability, T/C (%)
Numeric answer only, unit % assumed.

1) O=C(NO)c1cnc(N2CCN(S(=O)(=O)c3ccc4ccccc4c3)CC2)nc1 + Cc1cnc(CNC(=O)c2c(=O)c3ccc(N4CCCN(C)CC4)nc3n3c2sc2ccccc23)cn1	50.3
2) CC(C)(O)C1CCC(Nc2ccc3ncc(-c4cccc(C(F)(F)F)c4)n3n2)CC1 (centres undefined) + Cc1cnc(CNC(=O)c2c(=O)c3ccc(N4CCCN(C)CC4)nc3n3c2sc2ccccc23)cn1	79.9
3) COc1cc(C2c3cc4c(cc3C(OC3OC5COC(C)OC5C(O)C3O)C3COC(=O)C23)OCO4)cc(OC)c1O (centres undefined) + Cc1cnc(CNC(=O)c2c(=O)c3ccc(N4CCCN(C)CC4)nc3n3c2sc2ccccc23)cn1	92
4) CCCS(=O)(=O)Nc1ccc(F)c(C(=O)c2c[nH]c3ncc(-c4ccc(Cl)cc4)cc23)c1F + Cc1cnc(CNC(=O)c2c(=O)c3ccc(N4CCCN(C)CC4)nc3n3c2sc2ccccc23)cn1	85.5

Please look at the following compound next.
Recorded viability, T/C (compound C=CCn1c(=O)c2cnc(Nc3ccc(N4CCN(C)CC4)cc3)nc2n1-c1cccc(C(C)(C)O)n1 + CN(C)c1ccc(Nc2c3ccc(NC(=O)CCN4CCCC4)cc3nc3cc(NC(=O)CCN4CCCC4)ccc23)cc1 ): 82.5

* * *

This listing pairs molecules with measured pIC50.
Tested on: 596521-263-R-J1-PDC complex spheroids, viability % of control
experiment_notes: Anticancer human tumor 596521-263-R-J1-PDC cell line growth inhibition [GQUAD];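 also: spheroids exposed to drugs for 7 days before viability reading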
measurement_setup: curve of first compound; second compound 0.1 µM
pIC50: −log10 of the molar value.

1) Cc1[nH]c2ccccc2c1CCNCc1ccc(/C=C/C(=O)NO)cc1 + Cc1[nH]c2ccc(F)cc2c1-c1nc2c3cccnc3c3ncccc3c2[nH]1	< 6.50
2) CC[C@@]1(O)C(=O)OCc2c1cc1n(c2=O)Cc2cc3c(CN(C)C)c(O)ccc3nc2-1 + Cc1[nH]c2ccc(F)cc2c1-c1nc2c3cccnc3c3ncccc3c2[nH]1	< 6.50

// pIC50 (596521-263-R-J1-PDC complex spheroids, viability % of control) for O=C(c1cc(Cc2n[nH]c(=O)c3ccccc23)ccc1F)N1CCN(C(=O)C2CC2)CC1 + Cc1cnc(CNC(=O)c2c(=O)c3ccc(N4CCCN(C)CC4)nc3n3c2sc2ccccc23)cn1 = < 5.00
